# assayTarget: CYP2D6 (UniProt P10635)
# Sequence (P10635 whole entry): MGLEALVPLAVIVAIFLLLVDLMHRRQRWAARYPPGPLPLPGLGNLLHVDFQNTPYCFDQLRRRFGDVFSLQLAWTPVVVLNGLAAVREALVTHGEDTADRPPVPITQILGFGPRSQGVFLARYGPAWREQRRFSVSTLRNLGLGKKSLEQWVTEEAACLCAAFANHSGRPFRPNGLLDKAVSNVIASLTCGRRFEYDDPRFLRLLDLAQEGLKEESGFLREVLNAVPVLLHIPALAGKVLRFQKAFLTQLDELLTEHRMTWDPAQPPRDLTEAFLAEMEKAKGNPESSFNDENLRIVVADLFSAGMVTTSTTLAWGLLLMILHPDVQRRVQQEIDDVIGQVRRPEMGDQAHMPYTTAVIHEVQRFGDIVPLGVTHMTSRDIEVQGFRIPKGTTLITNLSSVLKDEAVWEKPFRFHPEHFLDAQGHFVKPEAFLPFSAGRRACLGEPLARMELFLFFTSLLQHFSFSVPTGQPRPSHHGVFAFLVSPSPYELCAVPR
# assayOverview: CYP enzyme activity (probe substrate metabolite formation) fold change vs solvent control; higher = stronger induction of CYP activity
# cond: 10 µM; treatment time 24 h; HepaRG
Measured CYP enzyme activity of individual entries
experimentalReadout: CYP enzyme activity

[
  {
    "compound": "c1ccc2c(c1)cc1ccc3cccc4c5ccccc5c2c1c34 [dibenzo[a,l]pyrene]",
    "experimentalReadout": "CYP enzyme activity",
    "result": 0.789
  },
  {
    "compound": "c1ccc2c(c1)-c1cccc3cccc-2c13 [fluoranthene]",
    "experimentalReadout": "CYP enzyme activity",
    "result": 1.08
  },
  {
    "compound": "c1ccc2c(c1)ccc1ccccc12 [phenanthrene]",
    "experimentalReadout": "CYP enzyme activity",
    "result": 0.986
  },
  {
    "compound": "c1ccc2c3c(ccc2c1)-c1cccc2cccc-3c12 [benzo[j]fluoranthene]",
    "experimentalReadout": "CYP enzyme activity",
    "result": 2.94
  },
  {
    "compound": "c1ccc2cc3c(ccc4ccccc43)cc2c1 [benzo[a]anthracene]",
    "experimentalReadout": "CYP enzyme activity",
    "result": 1.41
  }
]
